test: Metabolic stability in human liver microsomes assessed as parent compound remaining at 1 uM measured at 15 mins in presence of phase 1 metabolism cofactors by LC-MS/MS analysis; format: ADME, Microsome; details: read-out: Stability
The reader will find reported remaining at 0.25 h, 1 µM values listed item by item below.

# count of solved cases: 4
MOLECULE: CC(C)n1nc(-c2ccc3oc(N)nc3c2)c2c(CO)nc(N)nc21
QUANTITY NAME: remaining at 0.25 h, 1 µM
RESULT: > 95%

MOLECULE: CCc1nc(N)nc2c1c(-c1ccc3oc(N)nc3c1)nn2C(C)C
QUANTITY NAME: remaining at 0.25 h, 1 µM
RESULT: 93%

MOLECULE: CC(C)n1nc(-c2ccc3oc(N)nc3c2)c2c(F)nc(N)nc21
QUANTITY NAME: remaining at 0.25 h, 1 µM
RESULT: 83%

MOLECULE: CC(C)n1nc(-c2ccc3oc(N)nc3c2)c2c(Br)nc(N)nc21
QUANTITY NAME: remaining at 0.25 h, 1 µM
RESULT: 94%

Challenge: Any idea what remaining at 0.25 h, 1 µM was measured for "CC(C)n1nc(-c2ccc3oc(N)nc3c2)c2c(Cl)nc(N)nc21" ?
Response given: 92%

Challenge: Next up: CC(C)n1nc(-c2ccc3oc(N)nc3c2)c2c(N)ncnc21 [SAPANISERTIB]
Response given: > 95%

Challenge: Next up: "CNc1nc2c(c(-c3ccc4oc(N)nc4c3)nn2C(C)C)c(=O)[nH]1"
Response given: > 95%

Challenge: Next up: "CC(C)n1nc(-c2ccc3oc(N)nc3c2)c2cnc(N)nc21"
Response given: 94%

Challenge: Next up: "CC(C)n1nc(-c2ccc3oc(N)nc3c2)c2c(C#N)nc(N)nc21"
Response given: > 95%
